- System: MS2 coat protein
- experimental-details: apparent KD of MS2 coat protein; designed switch direction (-1 OFF switch, 1 ON switch): 1; higher = weaker reporter binding
- measurement-parameters: Eterna round: R95; input ligand: microRNA oligo, concentration not stated
# class assignment by measured apparent KD of MS2 coat protein: class 1: < 40 nM; class 2: ≥ 40 nM and < 60 nM; class 3: ≥ 60 nM

A selection of reference data follows.
-- ask Class label required: ACGCAGCUGGGUGAGGAUAUCGGUGGUACAACAUGAGGAUCACCCAUGUCCGAAGCUCGGACCUCCGAGAAGGCGCCCGGCUGCG [Soinraesar Omei Mod 2] (puzzle: Same State 2)
-- reply class 1

-- ask Hi there! Could you help me figure out the category for UACAAUCUAUCUCAGGAUAUCAUGUCAAAGACAUGAGGAUCACCCAUGUACCAGGAAACUGGUUAUGAGAAGGGAGAUAGAUUGU [Mat - Same State 2 - Mod - D24] (puzzle: Same State 2) please?
-- reply class 1

Continuing:
-- ask Kindly state the category for this sequence: AUUAAACAUGAGGAUCACCCAUGUCAACAAUGUCGAGGAUAUGGGCAAAUAAAAUAAGAACCAGAAGGCGAAUAAU [salish99_ss1_r3_076] (puzzle: Same State 1)
-- reply class 3

-- ask Sort UGUUAACAUGAGGAUCACCCAUGUCAAAUGAAUCGAGGAUAUGGUAAGUAAUAAGAUAAUCUAGAAGGCGAAGUUG [Altered State 1-23 - Jieux - Same State 1] (puzzle: Same State 1) into one of the categories.
-- reply class 2

-- ask Hello team, could you let me know which band the following sequence falls into: AAGGGAUGAGCGUAGGAUAUAGGAGAAGUGACAUGAGGAUCACCCAUGUAGGAGGAGGGAUGAGACUAGAAGGACGAGGUAGGAG [JR_SS2_Sub060] (puzzle: Same State 2)
-- reply class 2

-- ask Given UAUAAACAUGAGGAUCACCCAUGUAAUAAUAUGGGAGGAUAUCAGAUUUAAUUUAAUUUAUGAGAAGGCCUAAUAU [Mat - Same State 1 - Mod of Eli - D66] (puzzle: Same State 1) , name the class its apparent KD of MS2 coat protein places it in.
-- reply class 3

-- ask Class for UGUCCAGCCUGAGCUGGACAAAAGCAUGUACAUGAGGAUCACCCAUGUUCAUGUACAAGCUUUUUGCUCGUCUUGCA [salish99_208a_r3_109x] (puzzle: Sensor for hsa-mir-208a) ?
-- reply class 1

-- ask Which class does AGUCCAGCCUGAGCUGGACAAAAGCAUGUACAUGAGGAUCACCCAUGUUCAUGUACAAGCUUUUUGCUCGUCUUAGG [salish99_208a_r3_062] (puzzle: Sensor for hsa-mir-208a) fall in?
-- reply class 1

-- ask Input CGAUGAUACUUAGGAAAGAGAGUAGAGGAACAUGAGGAUCACCCAUGUAUGAGCUUUUUGCUCGUCAUGAACAGGAA [JR_SHM208a_Sub008] (puzzle: Sensor for hsa-mir-208a) ; output its category
-- reply class 3

-- ask Just checking, what class would you give AUAAAACAUGAGGAUCACCCAUGUCAACAAAGUCGAGGAUAUGGGCAAAUAAAAUAAGUACCAGAAGGCGAAUAAU [salish99_ss1_r3_017] (puzzle: Same State 1) here?
-- reply class 3

All figures here come from the supplement of paper PMC9170038.
